These entries and their values trace back to patent US20220153766A1.

# tested_system: MAP4K1 (HPK1) (Homo sapiens)
# Sequence (Q92918 whole entry): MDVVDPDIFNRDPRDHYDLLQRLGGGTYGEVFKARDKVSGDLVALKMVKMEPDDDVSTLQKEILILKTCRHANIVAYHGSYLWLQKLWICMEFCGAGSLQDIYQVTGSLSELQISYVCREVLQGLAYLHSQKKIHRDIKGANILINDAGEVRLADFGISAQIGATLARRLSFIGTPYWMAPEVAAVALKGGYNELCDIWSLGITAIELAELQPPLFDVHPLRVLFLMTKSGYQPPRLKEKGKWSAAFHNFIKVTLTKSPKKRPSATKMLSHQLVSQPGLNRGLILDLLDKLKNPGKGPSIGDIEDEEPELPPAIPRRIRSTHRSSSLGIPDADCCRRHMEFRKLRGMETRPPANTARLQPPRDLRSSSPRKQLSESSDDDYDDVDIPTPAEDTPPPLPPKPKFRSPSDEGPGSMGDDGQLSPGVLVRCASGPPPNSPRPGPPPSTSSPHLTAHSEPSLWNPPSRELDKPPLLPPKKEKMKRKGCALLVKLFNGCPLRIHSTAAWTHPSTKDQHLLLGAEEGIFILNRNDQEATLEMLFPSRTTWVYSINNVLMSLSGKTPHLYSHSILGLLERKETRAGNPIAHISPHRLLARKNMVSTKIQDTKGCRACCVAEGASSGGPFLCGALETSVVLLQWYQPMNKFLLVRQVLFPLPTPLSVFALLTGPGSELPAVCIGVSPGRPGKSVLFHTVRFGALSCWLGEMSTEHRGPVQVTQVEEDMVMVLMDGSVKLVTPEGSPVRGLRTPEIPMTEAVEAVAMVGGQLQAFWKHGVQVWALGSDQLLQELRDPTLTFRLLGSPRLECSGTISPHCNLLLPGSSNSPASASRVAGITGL
# measurement_description: MAP4K1 (HPK1) kinase activity inhibition, Caliper mobility shift assay
# Type: biochemical
# test_context: kinase 1.25 nM, ATP 10.1 μM
pIC50: −log10 of the molar value.
Recorded pIC50 values for a group of compounds are listed next.

Query: Please give measured pIC50 of the following entry: Cc1cc(Nc2ncc(Cl)c(Nc3ccccc3P(C)(C)=O)n2)cc2c1N1CCN(C3CCN(C4CC4)CC3)C[C@@H]1CO2 [Compound 33R]
Response: ≥ 9.00

Further cases:
Query: Please give measured pIC50 of the following entry: CN(C)CCN1CCN2c3ccc(Nc4ncc(Cl)c(Nc5ccccc5P(C)(C)=O)n4)cc3OC[C@H]2C1 [Compound 14R]
Response: 8.00 to 9.00

Query: Please give measured pIC50 of the following entry: Cc1cc(Nc2ncc(Cl)c(Nc3ccccc3P(C)(C)=O)n2)cc2c1N1CCN(C3CCOCC3)C[C@@H]1CO2 [Compound 31R]
Response: ≥ 9.00

Query: Please give measured pIC50 of the following entry: CP(C)(=O)c1ccccc1Nc1nc(Nc2ccc3c(c2)OC[C@H]2CN(c4ccccc4)CCN32)ncc1Cl [Compound 16R]
Response: 8.00 to 9.00

Query: Please give measured pIC50 of the following entry: CCN1CCC(N2CCN3c4c(C)cc(Nc5ncc(Cl)c(Nc6ccccc6P(C)(C)=O)n5)cc4OC[C@H]3C2)CC1 [Compound 30R]
Response: ≥ 9.00

Query: Please give measured pIC50 of the following entry: CP(C)(=O)c1ccccc1Nc1nc(Nc2ccc3c(c2)OC[C@H]2CN(c4cccnc4)CCN32)ncc1Cl [Compound 15R]
Response: 8.00 to 9.00

Query: Please give measured pIC50 of the following entry: C=CS(=O)(=O)N1CCN2c3ccc(Nc4ncc(Cl)c(Nc5ccccc5P(C)(C)=O)n4)cc3OC[C@H]2C1 [Compound 19R]
Response: ≥ 9.00

Query: Please give measured pIC50 of the following entry: CN1CCC(N2CCN3c4c(F)cc(Nc5ncc(Cl)c(Nc6ccccc6P(C)(C)=O)n5)cc4OC[C@@H]3C2)CC1 [Compound 35S]
Response: ≥ 9.00

---

# tested_system: EGFR (T790M/L858R/C797S) (Homo sapiens, UniProt P00533, C797S/L858R/T790M)
# Sequence (P00533 25-1210 T790M/C797S/L858R): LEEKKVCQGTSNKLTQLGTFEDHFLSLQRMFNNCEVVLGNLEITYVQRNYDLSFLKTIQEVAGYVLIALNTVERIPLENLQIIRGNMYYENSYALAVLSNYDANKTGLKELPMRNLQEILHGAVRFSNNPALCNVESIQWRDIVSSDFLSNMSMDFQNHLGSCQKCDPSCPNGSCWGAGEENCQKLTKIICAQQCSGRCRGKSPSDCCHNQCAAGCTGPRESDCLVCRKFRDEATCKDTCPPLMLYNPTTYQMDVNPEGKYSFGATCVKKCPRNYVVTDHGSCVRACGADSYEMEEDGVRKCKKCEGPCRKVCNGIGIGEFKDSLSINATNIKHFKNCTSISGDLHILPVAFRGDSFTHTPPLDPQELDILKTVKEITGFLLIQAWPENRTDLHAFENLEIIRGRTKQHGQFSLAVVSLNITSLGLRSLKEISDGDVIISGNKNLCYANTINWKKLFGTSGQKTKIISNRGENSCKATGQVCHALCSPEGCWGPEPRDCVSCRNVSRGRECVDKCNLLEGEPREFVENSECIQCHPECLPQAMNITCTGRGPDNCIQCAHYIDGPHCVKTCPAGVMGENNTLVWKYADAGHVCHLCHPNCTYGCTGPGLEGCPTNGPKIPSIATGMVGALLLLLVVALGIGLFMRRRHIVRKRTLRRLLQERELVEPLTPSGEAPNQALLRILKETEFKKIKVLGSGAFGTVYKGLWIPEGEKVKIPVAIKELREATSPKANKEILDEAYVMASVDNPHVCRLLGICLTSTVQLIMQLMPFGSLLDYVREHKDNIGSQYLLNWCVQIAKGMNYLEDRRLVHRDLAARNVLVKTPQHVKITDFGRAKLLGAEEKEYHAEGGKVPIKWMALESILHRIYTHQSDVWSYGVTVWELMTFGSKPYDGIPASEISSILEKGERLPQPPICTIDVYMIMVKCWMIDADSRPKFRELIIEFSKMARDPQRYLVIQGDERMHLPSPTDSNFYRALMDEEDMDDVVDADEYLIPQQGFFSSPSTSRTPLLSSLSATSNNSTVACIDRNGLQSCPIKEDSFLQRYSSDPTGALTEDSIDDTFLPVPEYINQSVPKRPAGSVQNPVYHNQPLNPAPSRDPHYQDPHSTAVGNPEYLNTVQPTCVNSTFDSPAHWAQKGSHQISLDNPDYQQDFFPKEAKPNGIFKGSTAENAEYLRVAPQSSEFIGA
# measurement_description: EGFR (T790M/L858R/C797S) kinase activity inhibition, Caliper mobility shift assay
# test_context: kinase 2.5 nM, ATP 40 μM
# Experimental: The basic method is the same as ALK activity test method 2. The test concentration of the compound starts at 2 μM, and is diluted 5 folds into 6 (7 for individual compounds) concentration points. […] Add 30 μL of stop solution containing EDTA to stop the kinase reaction. Use Caliper EZ Reader to read the conversion rate. […]
pIC50: −log10 of the molar value.
recorded_endpoint: pIC50

Worked examples follow.
Query: Please give measured pIC50 of the following entry: Cc1cc(Nc2ncc(Cl)c(Nc3ccccc3P(C)(C)=O)n2)cc2c1N1CCNC[C@H]1CO2 [Compound 23S]
Response: > 8.52

Query: Please give measured pIC50 of the following entry: C=CC(=O)Nc1cc(Nc2ncc(Cl)c(Nc3ccccc3P(C)(C)=O)n2)cc2c1N1CCN(C)C[C@@H]1CO2 [Compound 29R]
Response: 7.82 to 8.52

Query: Please give measured pIC50 of the following entry: Cc1cc(Nc2ncc(Cl)c(Nc3ccccc3P(C)(C)=O)n2)cc2c1N1CCN(C)C[C@@H]1CO2 [Compound 25R]
Response: > 8.52

Query: Please give measured pIC50 of the following entry: Cc1cc(Nc2ncc(Cl)c(Nc3ccccc3P(C)(C)=O)n2)cc2c1N1CCN(C3CCOCC3)C[C@H]1CO2 [Compound 31S]
Response: > 8.52

Query: Please give measured pIC50 of the following entry: Cc1cc(Nc2ncc(Cl)c(Nc3ccccc3P(C)(C)=O)n2)cc2c1N1CCN(C3CCN(C4CC4)CC3)C[C@@H]1CO2 [Compound 33R]
Response: > 8.52

Further cases:
Query: Please give measured pIC50 of the following entry: CC(=O)N1CCC(N2CCN3c4c(C)cc(Nc5ncc(Cl)c(Nc6ccccc6P(C)(C)=O)n5)cc4OC[C@H]3C2)CC1 [Compound 32R]
Response: > 8.52

Query: Please give measured pIC50 of the following entry: C=CC(=O)N1CCN2c3c(C)cc(Nc4ncc(Cl)c(Nc5ccccc5P(C)(C)=O)n4)cc3OC[C@H]2C1 [Compound 26R]
Response: 7.82 to 8.52

Query: Please give measured pIC50 of the following entry: C=CC(=O)N1CCC(N2CCN3c4ccc(Nc5ncc(Cl)c(Nc6ccccc6P(C)(C)=O)n5)cc4OC[C@H]3C2)CC1 [Compound 22R]
Response: 7.82 to 8.52
